test-system: RORγ ligand binding domain (LBD) (Homo sapiens, UniProt P51449)
Construct: made in house; host or cells: E. coli BL-21 (BL3), vector pDEST15
Sequence (P51449 269-508 limits assumed): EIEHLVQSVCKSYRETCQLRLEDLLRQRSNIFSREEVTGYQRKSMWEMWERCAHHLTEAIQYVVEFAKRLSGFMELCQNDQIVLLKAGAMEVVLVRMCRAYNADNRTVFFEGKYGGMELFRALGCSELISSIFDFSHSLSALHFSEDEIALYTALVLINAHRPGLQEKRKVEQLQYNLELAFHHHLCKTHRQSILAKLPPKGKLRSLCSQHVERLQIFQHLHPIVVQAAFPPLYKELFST
protocol-description: TR-FRET Activity Assay (ligand sensing, RORγ-LBD / coactivator peptide interaction, LANCE)
Assay type: biochemical
condition-parameters: first value of the cell FRET/FF/REN; TR-FRET activity assay; read-out: pIC50 (FRET) (converted)
As shown below, each of these molecules has a reported IC50 value.
Express it in µM; write the number only.

Worked examples, 4 molecules total:
1) Cc1c(C(=O)NC2CCOCC2)cc(-c2ccc(S(=O)(=O)NC(C)(C)C)c3ncccc23)n1CC1CCCCC1 : 1
2) Cc1c(C(=O)NCCC(C)(C)C(=O)O)cc(-c2ccc(S(=O)(=O)N[C@@H](C)C(F)(F)F)c(C(C)(C)C)c2)n1CC1CCCCC1 : 1
3) Cc1c(C(=O)NC2CCOCC2)cc(-c2ccc(S(=O)(=O)NC(C)(C)C)c(C(F)(F)F)c2)n1S(=O)(=O)C1CCCCC1 : 0.316
4) Cc1c(C(=O)N[C@H]2C[C@H](C(=O)O)C2)cc(-c2cc(C(C)(C)C)cc(C(C)(C)C)c2OC(F)F)n1CC1CCCCC1 : 2.51

Query: What does the record list as IC50 for CC(C)(C)NS(=O)(=O)c1ccc(-c2cc(C(=O)NCCC(C)(C)C(=O)O)c(C(N)=O)n2CC2CCCCC2)cc1C(F)(F)F ?
Response: 0.794

* * *

test-system: RORγ ligand binding domain (LBD) (Homo sapiens)
Construct: made in house; host or cells: E. coli BL-21 (BL3), vector pDEST15
protocol-description: TR-FRET Activity Assay (ligand sensing, RORγ-LBD / coactivator peptide interaction, LANCE)
Type: biochemical
condition-parameters: first value of the cell FRET/FF/REN; TR-FRET activity assay; read-out: pIC50 (FRET) (converted)
Each record gets a class by IC50: bottom = under 400 nM, middle = from 400 nM up to 800 nM, top = 800 nM and over

Consider the worked cases shown below.
1) Cc1c(C(=O)N[C@H]2C[C@H](C(=O)O)C2)cc(-c2cc(C(=O)NC(C)(C)C)cc(C(C)(C)C)c2)n1CC1CCCCC1 [17/330] : top
2) Cc1c(C(=O)NCC(C)(C)O)cc(-c2cc(OC(F)(F)F)cc(C3(C)CC3)c2)n1CC1CCCCC1 [17/348] : bottom
3) CC(=O)N1CC(NC(=O)c2cc(-c3cc(C(C)(C)C)cc(C(C)(C)C)c3)n(CC3CCCCC3)c2C)C1 [Example 5] : middle
4) Cc1c(C(=O)NC2CCOCC2)cc(-c2ccc(S(=O)(=O)NC(C)(C)C)c(C(F)(F)F)c2)n1[C@H](C)C1CCCCC1 [17/254] : middle
5) Cc1c(C(=O)NCCC(C)(C)C(=O)O)cc(-c2ccc(S(=O)(=O)NC(C)(C)C)c(C(F)F)c2)n1CC1CCCCC1 [17/130] : bottom
6) Cc1c(C(=O)NC2CCS(=O)(=O)CC2)cc(-c2ccc(S(=O)(=O)NC(C)(C)C)c3ccccc23)n1CC1CCCCC1 [17/263] : bottom

Note: attention shifts to another entry.
Query: Band assignment needed for Cc1c(C(=O)NCC(C)(C)C(=O)O)cc(-c2ccc(S(=O)(=O)NC(C)(C)C)c(C(C)(C)C)c2)n1CC1CCCCC1 [1/129] please.
Response: top

* * *

test-system: RORγ (UniProt P51449)
protocol-description: RORγ Gal4 Reporter Gene Assay in 293T cells (firefly and renilla luciferase)
Assay type: cell-based, human
condition-parameters: second value of the cell; Gal4 reporter gene assay in 293T cells, firefly luciferase
measurement-type: pIC50 (FF)
No unit in the answer, please; the number alone is enough.

1. Cc1c(C(=O)NC2(C#N)CC2)cc(-c2cc(C(C)(C)C)cc(C(C)(C)C)c2)n1CC1CCCCC1 : 6.4

Query: What does the record list as pIC50 (FF) for Cc1c(S(=O)(=O)NC(C)(C)C)ccc(-c2cc(C(=O)NC3CCOCC3)c(C)n2CC2CCCCC2)c1OC(F)F ?
Response: 7.3

Query: What does the record list as pIC50 (FF) for Cc1c(C(=O)NC2COC2)cc(-c2cc(CN3CCOCC3)cc(C(C)(C)C)c2)n1CC1CCCCC1 ?
Response: 7.2

Query: What does the record list as pIC50 (FF) for Cc1c(C(=O)NC2CCOCC2)cc(-c2ccc(S(=O)(=O)N[C@@H](C)C(F)(F)F)c(C(C)(C)C)c2)n1CC1CCCCC1 ?
Response: 8.3

Query: What does the record list as pIC50 (FF) for Cc1c(C(=O)NCC(C)(C)O)cc(-c2cc(C(C)(C)C)cc(C(=O)NC(C)(C)C)c2Cl)n1CC1CCCCC1 ?
Response: 6.4

* * *

test-system: RORγ ligand binding domain (LBD) (Homo sapiens, UniProt P51449)
Construct: made in house; host or cells: E. coli BL-21 (BL3), vector pDEST15
protocol-description: TR-FRET Activity Assay (ligand sensing, RORγ-LBD / coactivator peptide interaction, LANCE)
Assay type: biochemical
condition-parameters: first value of the cell FRET/FF/REN; TR-FRET activity assay; read-out: pIC50 (FRET) (converted)
measurement-type: IC50 (nM)
Express it in nM; write the number only.

Worked examples, 8 compounds total:
1) Cc1c(C(=O)NCCC(C)(C)C(=O)O)cc(-c2ccc(S(=O)(=O)NC(C)(C)C)c(OC(F)F)c2)n1CC1CCCCC1 : 794
2) Cc1c(C(=O)NCC2CCOCC2)cc(-c2cc(C(C)(C)C)c3c(c2)C2(CCO3)CC2)n1CC1CCCCC1 : 501
3) Cc1c(C(=O)NC[C@@H](C)O)cc(-c2cc(C(C)(C)C)cc(C(C)(C)C)c2)n1CC1CCCCC1 : 631
4) COC(=O)C(C)(C)CCNC(=O)c1cc(-c2cc(C(C)(C)C)cc(C3(C)CC3)c2)n(CC2CCCCC2)c1C : 316
5) Cc1c(C(=O)NCC(C)(C)O)cc(-c2ccc(S(=O)(=O)NC(C)(C)C)c3ccccc23)n1CC1CCCCC1 : 631
6) Cc1c(C(=O)NC2CC23CCOCC3)cc(-c2ccc(S(=O)(=O)NC(C)(C)C)c(C(F)(F)F)c2)n1CC1CCCCC1 (stereo not drawn) : 158
7) Cc1c(C(=O)NCCCS(C)(=O)=O)cc(-c2cc(C(C)(C)C)c3c(c2)C2(CCO3)CC2)n1CC1CCCCC1 : 501
8) Cc1c(C(=O)NCC2CCS(=O)(=O)C2)cc(-c2cc(C(C)(C)C)c3c(c2)C2(CCO3)CC2)n1CC1CCCCC1 (stereo not drawn) : 200

Query: What does the record list as IC50 for Cc1c(C(=O)NC2COC2)cc(-c2cc(C(C)(C)C)nc(C(C)(C)C)c2)n1CC1CCCCC1 ?
Response: 158

* * *

test-system: RORγ ligand binding domain (LBD) (Homo sapiens)
Construct: made in house; host or cells: E. coli BL-21 (BL3), vector pDEST15
protocol-description: TR-FRET Activity Assay (ligand sensing, RORγ-LBD / coactivator peptide interaction, LANCE)
Format: biochemical
As shown below, each of these compounds has a reported IC50 value.
Express it in nM; write the number only.

Worked examples, 7 compounds total:
1. COCCNC(=O)c1cc(-c2cc(C(C)(C)C)c(O)c(C(C)(C)C)c2)n(CC2CCCCC2)c1C [1/46] : 316
2. Cc1c(C(=O)NCC(C)(C)O)cc(-c2cc(C(C)(C)C)c3c(c2)C2(CCO3)CC2)n1CC1CCCCC1 [1/39] : 316
3. Cc1c(C(=O)NCC(C)(C)O)cc(-c2cc(C(=O)N(C)C(C)(C)C)cc(C(C)(C)C)c2)n1CC1CCCCC1 [15/7] : 1260
4. Cc1c(C(=O)N[C@H]2C[C@](C)(C(=O)O)C2)cc(-c2cc(C(C)(C)C)cc(C3(C)CC3)c2)n1CC1CCCCC1 [17/171] : 794
5. Cc1c(C(=O)NCC(C)(C)NS(C)(=O)=O)cc(-c2cc(C(C)(C)C)cc(C(C)(C)C)c2)n1CC1CCCCC1 [1/4] : 316
6. Cc1c(C(=O)NCC(C)(C)O)cc(-c2cc(C(C)(C)C)cc(C3(C)CC3)c2)n1CC1CCCCC1 [1/87] : 316
7. Cc1c(C(=O)NCC2(O)CCOCC2)cc(-c2ccc(S(=O)(=O)NC(C)(C)C)c(C(F)F)c2)n1CC1CCCCC1 [17/129] : 200

Please find the next compound below.
Query: Form entry - test system: RORγ ligand binding domain (LBD) (Homo sapiens); read-out: IC50; compound: Cc1c(C(=O)NC2CCOCC2)cc(-c2ccc(S(=O)(=O)N(CC(F)(F)F)C(C)(C)C)c(C(C)(C)C)c2)n1CC1CCCCC1 [17/1]
Response: 1260

// data source = patent US9815851B2
